# experimental system: VHL (VBC complex) (Homo sapiens, UniProt P40337)
# Construct: equimolar complex of pVHL54-213, eloB1-104 and; made in house; host or cells: E. coli
# Sequence (P40337 54-213): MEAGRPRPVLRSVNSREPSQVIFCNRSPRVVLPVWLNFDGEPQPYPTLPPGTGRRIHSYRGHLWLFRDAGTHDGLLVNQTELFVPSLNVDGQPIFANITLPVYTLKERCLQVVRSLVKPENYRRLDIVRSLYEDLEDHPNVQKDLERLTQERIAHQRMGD
# Sequence (Q15370 1-104 partner limits assumed): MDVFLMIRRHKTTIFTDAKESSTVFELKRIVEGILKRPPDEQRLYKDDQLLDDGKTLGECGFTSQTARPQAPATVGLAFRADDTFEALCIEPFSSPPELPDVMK
# Sequence (Q15369 17-112 partner limits assumed): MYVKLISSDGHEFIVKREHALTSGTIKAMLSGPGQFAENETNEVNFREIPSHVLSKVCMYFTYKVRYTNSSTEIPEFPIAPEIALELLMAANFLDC
# assay notes: 19F CPMG NMR transverse relaxation rate (R2) and R2 contrast (C2) of spy molecule with and without protein
# Assay type: binding
# experimental context: Spy molecule 100 μM + VBC 1 μM
value type: R2 (s⁻¹)
Give bare numbers, in s⁻¹.

Below are some compounds; for each one, tell me its R2.
1. CC(=O)N1C[C@H](O)C[C@H]1C(=O)NCc1ccc(Br)c(C(F)(F)F)c1
2. CC(=O)N1C[C@H](O)C[C@H]1C(=O)NCc1ccc(-c2scnc2C)c(C(F)(F)F)c1

Response:
1. 1.251
2. 1.760

Prompt: Consider the compound CC(=O)NC(C(=O)N1CC(O)CC1C(=O)NCc1ccc(-c2scnc2C)cc1C(F)(F)F)C(C)(C)C (stereo not drawn) . State its measured R2.
Response: 1.828

* * *

# experimental system: VHL (VBC complex: pVHL54-213, eloB1-104, eloC17-112) (Homo sapiens)
# Construct: equimolar complex of pVHL54-213, eloB1-104 and; made in house; host or cells: E. coli
# assay notes: Surface plasmon resonance (SPR) steady-state binding to immobilised biotinylated AviVBC
# experimental context: SPR steady-state fit, supplement section 7; read-out: KD (Biacore T200 fit)
# Description: The KD of each compound to VHL was determined by surface plasmon resonance (SPR) experiments. 3. Protein expression, purification and biotinylation […] Where Req is the steady-state response at a given concentration C. […] KD is the dissociation constant to be determined and RMAX is the maximum response expected for a given compound according to the equation below: […]
Classes based on Kd: bottom bin = under 3 µM, middle bin = from 3 µM up to 100 µM, top bin = 100 µM and over

CC(=O)NC(C(=O)N1CC(O)CC1C(=O)NCc1ccc(-c2scnc2C)cc1C(F)(F)F)C(C)(C)C (stereo not drawn)    bottom bin
CC(C)(C)CC(=O)N1C[C@H](O)C[C@H]1C(=O)NCc1ccc(Br)cc1C(F)(F)F    top bin
CC(=O)NC(C(=O)N1CC(O)CC1C(=O)NCc1ccc(Br)c(C(F)(F)F)c1)C(C)(C)C (stereo not drawn)    middle bin
CC(=O)NC(C(=O)N1CC(O)CC1C(=O)NCc1ccc(Br)cc1C(F)(F)F)C(C)(C)C (stereo not drawn)    bottom bin
Cc1ncsc1-c1ccc(CNC(=O)[C@@H]2C[C@@H](O)CN2C(=O)CC(C)(C)C)cc1C(F)(F)F    middle bin

Consider the additional molecule presented here.
Prompt: # bin label for O=C(NCc1ccc(Br)cc1)C1CC(O)CN1C(=O)CC(F)(F)F (stereo not drawn)
Response: top bin

* * *

# experimental system: VHL (VBC complex) (Homo sapiens, UniProt P40337)
# Construct: equimolar complex of pVHL54-213, eloB1-104 and; made in house; host or cells: E. coli
# assay notes: 19F CPMG NMR transverse relaxation rate (R2) and R2 contrast (C2) of spy molecule with and without protein
# Assay type: binding
# experimental context: Spy molecule 100 μM + VBC 1 μM, supplement 8.1
Kindly supply the reported R2 contrast – C2 values for the records listed here.
Numbers only, in %.

These recorded examples may help you get a feel for the data.
CC(C)(C)C(NC(=O)C(F)(F)F)C(=O)N1CC(O)CC1C(=O)NCc1ccc(Br)cc1 (stereo not shown)    3.7
CC(=O)N1C[C@H](O)C[C@H]1C(=O)NCc1ccc(-c2scnc2C)c(C(F)(F)F)c1    37.7
O=C(NCc1ccc(Br)cc1)C1CC(O)CN1C(=O)CC(F)(F)F (stereo not shown)    70.1

Please turn your attention to the following entry.
Prompt: Consider the compound `Cc1ncsc1-c1ccc(CNC(=O)[C@@H]2C[C@@H](O)CN2C(=O)CC(C)(C)C)c(C(F)(F)F)c1` . State its measured R2 contrast – C2.
Response: 41.3

* * *

# experimental system: VHL (VBC complex) (Homo sapiens, UniProt P40337)
# Construct: equimolar complex of pVHL54-213, eloB1-104 and; made in house; host or cells: E. coli
# assay notes: 19F CPMG NMR transverse relaxation rate (R2) and R2 contrast (C2) of spy molecule with and without protein
# Assay type: binding
# experimental context: Spy molecule 100 μM + VBC 1 μM
Classification field: criterion met = R2 at or over 2 s⁻¹; criterion not met = R2 under 2 s⁻¹.

Answered examples (6):
CC(=O)N1C[C@H](O)C[C@H]1C(=O)NCc1ccc(Br)cc1C(F)(F)F    criterion met
O=C(NCc1ccc(Br)c(C(F)(F)F)c1)[C@@H]1C[C@@H](O)CN1    criterion not met
CC(=O)NC(C(=O)N1CC(O)CC1C(=O)NCc1ccc(Br)c(C(F)(F)F)c1)C(C)(C)C (stereo not shown)    criterion not met
O=C(NCc1ccc(Br)cc1)C1CC(O)CN1C(=O)CC(F)(F)F (stereo not shown)    criterion met
CC(=O)NC(C(=O)N1CC(O)CC1C(=O)NCc1ccc(-c2scnc2C)c(C(F)(F)F)c1)C(C)(C)C (stereo not shown)    criterion not met
CC(=O)NC(C(=O)N1CC(O)CC1C(=O)NCc1ccc(Br)cc1C(F)(F)F)C(C)(C)C (stereo not shown)    criterion not met

Prompt: Has `Cc1ncsc1-c1ccc(CNC(=O)[C@@H]2C[C@@H](O)CN2)c(C(F)(F)F)c1` a recorded R2 greater than or equal to 2 s⁻¹?
Response: criterion not met

Prompt: Has `O=C(NCc1ccc(Br)cc1C(F)(F)F)[C@@H]1C[C@@H](O)CN1` a recorded R2 greater than or equal to 2 s⁻¹?
Response: criterion not met

Prompt: Has `Cc1ncsc1-c1ccc(CNC(=O)[C@@H]2C[C@@H](O)CN2)cc1C(F)(F)F` a recorded R2 greater than or equal to 2 s⁻¹?
Response: criterion not met

Prompt: Has `Cc1ncsc1-c1ccc(CNC(=O)[C@@H]2C[C@@H](O)CN2C(=O)CC(C)(C)C)cc1C(F)(F)F` a recorded R2 greater than or equal to 2 s⁻¹?
Response: criterion met

Prompt: Has `CC(=O)N1C[C@H](O)C[C@H]1C(=O)NCc1ccc(-c2scnc2C)cc1C(F)(F)F` a recorded R2 greater than or equal to 2 s⁻¹?
Response: criterion met

Prompt: Has `CC(C)(C)CC(=O)N1C[C@H](O)C[C@H]1C(=O)NCc1ccc(Br)c(C(F)(F)F)c1` a recorded R2 greater than or equal to 2 s⁻¹?
Response: criterion not met

Prompt: Has `Cc1ncsc1-c1ccc(CNC(=O)[C@@H]2C[C@@H](O)CN2C(=O)CC(C)(C)C)c(C(F)(F)F)c1` a recorded R2 greater than or equal to 2 s⁻¹?
Response: criterion met

Prompt: Has O=C(NCc1ccc(Br)cc1)C1CC(O)CN1C(=O)C(F)(F)F (stereo not shown) a recorded R2 greater than or equal to 2 s⁻¹?
Response: criterion met

Prompt: Has `CC(C)(C)CC(=O)N1C[C@H](O)C[C@H]1C(=O)NCc1ccc(Br)cc1C(F)(F)F` a recorded R2 greater than or equal to 2 s⁻¹?
Response: criterion met

Prompt: Has CC(C)(C)C(NC(=O)C(F)(F)F)C(=O)N1CC(O)CC1C(=O)NCc1ccc(Br)cc1 (stereo not shown) a recorded R2 greater than or equal to 2 s⁻¹?
Response: criterion met

* * *

# experimental system: VHL (VBC complex) (Homo sapiens, UniProt P40337)
# Construct: equimolar complex of pVHL54-213, eloB1-104 and; made in house; host or cells: E. coli
# assay notes: 19F CPMG NMR transverse relaxation rate (R2) and R2 contrast (C2) of spy molecule with and without protein
# Format: binding
# experimental context: Spy molecule 100 μM + VBC 1 μM, supplement 8.1
Kindly supply the reported R2 contrast – C2 values for the records listed here.

O=C(NCc1ccc(Br)cc1C(F)(F)F)[C@@H]1C[C@@H](O)CN1    0.9 ± 2.7%

Below are some compounds; for each one, tell me its R2 contrast – C2.
1. CC(=O)N1C[C@H](O)C[C@H]1C(=O)NCc1ccc(-c2scnc2C)cc1C(F)(F)F
2. Cc1ncsc1-c1ccc(CNC(=O)[C@@H]2C[C@@H](O)CN2)cc1C(F)(F)F
3. CC(=O)N1C[C@H](O)C[C@H]1C(=O)NCc1ccc(Br)c(C(F)(F)F)c1
4. CC(=O)NC(C(=O)N1CC(O)CC1C(=O)NCc1ccc(Br)cc1C(F)(F)F)C(C)(C)C (centres unmarked)
5. CC(C)(C)CC(=O)N1C[C@H](O)C[C@H]1C(=O)NCc1ccc(Br)cc1C(F)(F)F
6. Cc1ncsc1-c1ccc(CNC(=O)[C@@H]2C[C@@H](O)CN2)c(C(F)(F)F)c1
7. O=C(NCc1ccc(Br)c(C(F)(F)F)c1)[C@@H]1C[C@@H](O)CN1

Response:
53.9 ± 2.5%
2.2 ± 1.8%
6.5 ± 2.2%
7.6 ± 2.4%
47.9 ± 4.1%
3.2 ± 2.0%
4.1 ± 3.1%
